- procedureDetails: label from the status in PepcDB records;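 note: failed if final PepcDB status was selected cloned or expressed and not failed if soluble or beyond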
observationType: protein production

MFSPQASAAYDDLHEGYATYTGSGYSGGAFLLDPIPSDMEITAINPADLNYGGVKAALAGSYLEVEGPKGKTTVYVTDLYPEGARGALDLSPNAFRKIGNMKDGKINIKWRVVKAPITGNFTYRIKEGSSRWWAAIQVRNHKYPVMKMEYEKDGKWINMEKMDYNHFVSTNLGTGSLKVRMTDIRGKVVKDTIPKLPESGTSKAYTVPGHVQFPELEHHHHHH : not failed
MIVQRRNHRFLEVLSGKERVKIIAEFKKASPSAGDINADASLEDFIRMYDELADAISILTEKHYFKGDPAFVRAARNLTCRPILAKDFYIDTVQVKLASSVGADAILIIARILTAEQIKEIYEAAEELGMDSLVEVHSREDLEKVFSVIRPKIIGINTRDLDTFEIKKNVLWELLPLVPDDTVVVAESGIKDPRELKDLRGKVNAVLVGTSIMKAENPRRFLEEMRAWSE : not failed

----------
- procedureDetails: label from the status in PepcDB records
observationType: protein production

# count of solved cases: 6
MIMFNYQQTSQSCVKCGKCIPSCTIYNIHPDEVTSPRGFIDLLGAYQRGELELDKNAKDIFEKCFLCTNCTYVCPNLLPTDQVIENVRAEIAQKFGIAWFKRAYFFLLRNRWLEHHHHHH : failed
MLEVVYIVGAFGSPLLTPPTLAVAGFLIAVLMGLEYGVLWVLTGESLNRELILVISNIVYSIAWSITALPFTPIYYTLQPYFSQPLLIYLYLALFIGSILLGVIPAIMYIRKYLQFNKIQKEFKQLELDYKSINQEYSEINTRLNKAKEEINNVMDKINKAKELHETALRDPDLIVTALDKKPEIPEVIRPNVNYVVAGLGGTGTALLEALIDYLVSKNVIKEDGTNPFLFVAFDTNQASIARLRKKYEYTPVGKLLYTFNNFEALTTANIISHNPWLAGLNVDVIQGSGMKRAIGYASYNTVKEAMMEDILRRLSDLIAKTRTNRIFLIVFTALGGGTGSGSFIHFTKDFISRLGRITGDSEPYVRVSGM : failed
MQKINIDRHATAQINMLANKLMLKSSTAYTQKFGIGMTEWRIISVLSSASDCSVQKISDILGLDKAAVSRTVKKLEEKKYIEVNGHSEDKRTYAINLTEMGQELYEVASDFAIEREKQLLEEFEEAEKDQLFILLKKLRNKVDQM : not failed
MKRFARKETIYLRGEEARTLYRLEEGLVRVVELLPDGRLITLRHVLPGDYFGEEALEGKAYRYTAEAMTEAVVQGLEPRAMDHEALHRVARNLARQMRRVQAYEAHLQTGELRARIARYLLFLADTPLSARDRQGIYVTVSHEEIADATASIRESVSKVLADLRREGLIATAYRRVYLLDLAALEREAGSALEAA : not failed
MFSFFSRWYQERFSDPQAVTLLAILVGLALVLYFAGGLLAPLLVALVLAFLLEWPVAQMLKLGINRTTAASLVLIIFLGIVVLLTFGLIPSVWRQGVSLMTDLPSMIDKGLQTVQGLATQYPQFISVEQLNLMVAELKKLLDTQHVLDIAKQLIGYSASLLVLMVYAILVPLLVFFFLKDKDQLISGSKRFFPTNRQLARKVWFEMHQQIFNYIRGKVIEIVIVGVASYILFAFMGLSYSALLGVLTGLSVLIPYVGATLVTLPIMLVAFFQWGFSSEFGYLMLGYGIIQALDGNVLVPILFSDAVDLHPVIIIAAVLVFGGLWGVLGVFFAIPLASLVKAVINAWPKTEIEPSASAPPQK : failed
MADSKGTASPAKPLQPPSAATPIIERVIKQMESEDGWVSLGEVGKHLSNLASDFDPRTFGFRKLSDLVRKTNAFELEQQNGHLEHHHHHH : failed

Okay, next one:
Problem: Requested read-out: protein production. Entry: `MSLQRLLQHSSNGNLADFCAGPAYSSYSTLTGSLTMDDNRRIQMLADTVATLPRGRKQLALTRSSSLSDFSWSQRKLVTVEKQDNETFGFEIQSYRPQNQNACSSEMFTLICKIQEDSPAHCAGLQAGDVLANINGVSTEGFTYKQVVDLIRSSGNLLTIETLNGTMILKRTELEAKLQVLKQTLKQKWVEYRSLQLQEHRLLHGDAANCPSLENMDLDELSLFGPLPGPGPALVDRNRLSSESSCKSWLSSMTMDSEDGYQTCVSEDSSRGAFSRQTSTDDECFIPKEGDDFLRRSSSRRNRSISNTSSGSMSPLWEGNLSSMFGTLPRKSRKGSVRKQLLKFIPGLHRAVEEEESRF`
Solution: not failed

----------
- procedureDetails: label from the status in PepcDB records
observationType: protein production

MRQIGNRRVAPLAILAAVLMGGPTNASTGEFKVAYLYNLSDFTGTIPYSLAKIALDATARETYVISGETVKVFNNSGMEVYRFTNTMESGIVYDAAIDEQGRILVLAYNNGTPSLLLCNYRAEPIKPIEFKGLPEKLAAFKPNRLMLRDGKICLVSLGSMMVVMLDPEGNYVKHIDLAEASSVTEEDRLNTGIGAVAFDSDGSVLFTSPVTGKVFRISANGTVESFGKRGSAPGKFGVPTGIAVDGLGNYYISDKLRCAILVFDRQFKFIYEFGGRGDAPGSLVGPDDLAIDAEGKLYVGQLGNRGVSVFKVTHD : failed
MSAELTRARQQLSQIRGYLRQGKVMPAAQAFQSALVIVLKSPLMRAEREEFERMFADAAHHLNNDAGLRALFPLKIEYLPGSEKELLDIIRELVTAVNNAAVTEAQEQLAALDARKAAGLEQGQAHLDAQEFDAAAAVFRQLSHEFKDDPQLRGEIGERFLKAGRYEEAFDYLAQALDLSPESIHLYNRIGIALRRLGRFETGEKYYLRALQYAGHDPNLLFNLGRLYVDWQRWDKVAKAAAAALRVNPAFDEARKMLEFAERKLQR : failed

----------
- procedureDetails: label from the status in PepcDB records
observationType: protein production

Past entries and their recorded results:
MAASTDIAGLEESFRKFAIHGDPKASGQEMNGKNWAKLCKDCKVADGKAVTGTDVDIVFSKVKAKSARVINYEEFKKALEELATKRFKGKSKEEAFDAICQLIAGKEPANIGVTKAKTGGAVDRLTDTSKYTGSHKER : not failed
MHRSIRFTFDDRVPRYWHAGRAHTTRFFDCLSFMFPQGEKIFIESVVHFRHKLDKDSALDKAVDDFIYQEASHMREHRAYNQRLCAQGAPVETLERMLLRRRKESARLPASFRLALTASLEHITAILSDQLLRNPAYLKNADPTMAGLWRWHALEEIEHKAVAYDVLCTVERNPLWRYLLRCVAMLSLSVYFTFDLGYFTYHLVRGDKQHRNWREWLRLQWWLFVNPGLLSRIVPAGLFWFVPGFHPNRIDTRALLDTARQALDEQR : failed
MSETERTLVIIKPDAVVRGLIGEIISRFEKKGLKIVGMKMIWIDRELAEKHYEEHREKPFFKALIDYITKTPVVVMVLEGRYAVEVVRKMAGATDPKDAAPGTIRGDFGLEVSDAICNVIHASDSKESAEREISLFFKPEELFEYPRAADWFYKKGI : not failed
ECTIKNNIENILRNSYINVGYEEVRSPTLEFYDVYNLENQPISQEKMYKLFDNTGRILVLRPDMTTPIARICATKLKNRVYPLKLSYTGNIYRMNKALNGKISEITQSGIEILGFSSLKADAEVIITAIKAILKTGLKNFKIEIGQVEFFKSIISDTALKEQDTEKLRNFIENKNFSKVEEFILRNSDLIGETSSKVLMNLPNLFGGKEVIEKAEQLTSNKQAIEALKKVRDLYDIVKRAGFGEYILIDLGMVQHINYYTGLIFRGYAHGIGDDLLSGGRYDKLLGQFGYDIPATGLAINVDNLVA : failed
DSSMKTDVVEHDKDYVVTAELPGFKKDDIHVDYHDETLRISGKTEVNQSAKDDDGRILRQERRSQNVARSFYLPGIDLKNVKATYADGILTLTLPKQTEVDGSHEISID : failed

Problem: Query (sequence): `MSLAQKLRQASSRLLGVVFELQQPFHGDLVEQIYAAATRRGYDVMLSAVAPSRAEKVAVQALMRERCEAAILLGTRFDTDELGALADRVPALVVARASGLPGVGAVRGDDVAGITLAVDHLTELGHRNIAHIDGADAPGGADRRAGFLAAMDRHGLSASATVVTGGTTETEGAEGMHTLLEMPTPPTAVVAFNDRCATGVLDLLVRSGRDVPADISVVGYDDSRLARIPHVQMTTISQDATHMAEAAVDGALAQISGDKAVDLVLAPHLVRRATTGPVAHREGHHHHHH` ; field requested: protein production
Solution: not failed

Problem: Thanks! And `MGVDNFSTTKKMFTWEVPGERVITLMTAGNLATTQALISLLEERSKTPSERSPSILERPTMFEVARLVGATLKEVIADTAGTGQVASSQFKASVIVGGQVKGGLPTLFLIYPEGNFIEVTEDSPFFQIGEAKYGKPILVRAYDPDLSFEDTIRLLMVSFDSTIKANLSVGLPLDLQVYANDSFAIKEQSRVEADDAYFQSISERWGDALRKALSDLPPYKSLLEHHHHHH` ?
Solution: failed

Problem: Same read-out for `MRWGSWLALAGLNAFLSIASGAFAAHALSALGDAHGVGLMEKSARYQMYGAFALVVCAWLAERGVGGRLVAVAGWLHLAGVVLFCGALSAIALLGWPAGPVAPLGGSAMLLGWGVLAWIGLRARRGA` ?
Solution: failed

Problem: Also check `MDKTQSYDIFLIAPPGLEQVLAEEATACGFDEPRVVPGGVETRGPWSEVMRANLVLRGAGRVLVRIGGFPAVHLAQLDKRARKFAWGDFLRPDRPIRVEAVSRKSKIYHAGAAKQRVERAITEELGAPISDEAEIRLMLRIERDFCTFSIDTSGEALHKRGHKEAVGKAPMRETMAALFLRQCGFDGAEPVLDPMCGSGSFVIEAAEWAAGLMPGRSRSFAFEQLAGFDAAQWQSMRNAAGAGGRPESLYSGSDRNAGAIDASRANATRAGVADFCAFHQRPVSDIRPPEGRPGLVIVNPPYGARIGDQARLRSLYGSLGKVLMDRFSGWRVGLITSEMSLARSTRLPFQAPGPVVDHGGIKVRLYQSVRLR`
Solution: failed

Problem: How about `MTRIAIVGAGPAGLSLAYFLKGSRKVEATVYESMPEPGLKPCAWGLITGIENIIPIPNETIISEIRGFRIYLDNKLVFDIRTDNKLGYIIDKPLFLKRLSQEVNVEFNSKVVKKDDKYYINDKSLDHDKVIFATGHYSVSKSMSIPAIQYITDYEIDKEVVEFYFYSGFLGYAWVFPDREGSKIGIGGYAEVPELKERLKQILKGRIRTFHGARVTDYGVIEDRLDGNYTGEALGTVYAITGEGIRPSIISSKILADSILNRKDFKKEFKKSKLYWSLNWHAKIIKMTKENDPGTARLSKALLNNDPQLILKFAIGEFNRVDLIKIFGRSLILEHHHHHH` ?
Solution: not failed
